Reference source: the supplement of paper PMC3842684

# Tested on: P. falciparum NF54-pfs16-GFP late (IV-V) stage gametocytes
# Protocol Notes: relative % inhibition of viable gametocyte number; higher = more gametocytocidal
# Measurement Parameters: 5 µM; stage: late (IV-V) gametocyte; incubation 72 h
Quantity Name: relative % inhibition (%)
The figure you give is taken to be in %; do not add the unit.

Field relative % inhibition (entry "O=C(Nc1ccc(Cl)cc1)N1CCN(c2ccc3nncn3n2)CC1" ) reads -7.25

Field relative % inhibition (entry "CCOC(=O)c1cnc2ccc(OC)cc2c1NCc1ccccc1" ) reads 2.07

Field relative % inhibition (entry COC(=O)c1ccc(Cl)c2c1C1C=CCC1C(c1cccc3ccccc13)N2 (centres undefined) ) reads 35.3

Field relative % inhibition (entry "CCN(CC)CCCNc1ccnc2cc3ccccc3cc12" ) reads -8.3

Field relative % inhibition (entry Nc1ccn(C2O[C@H](CO)[C@@H](O)[C@H]2O)c(=O)n1 (some centres undefined) ) reads -10.9

Field relative % inhibition (entry "CCOC(=O)c1cnc2ccc(OC)cc2c1Nc1ccc(N2CCN(C)CC2)cc1" ) reads 19.4

Field relative % inhibition (entry "O=C(Nc1cccc(C(F)(F)F)c1)c1cc(Cl)ccc1O" ) reads 30.1

Field relative % inhibition (entry CCCCC(O)(c1ccc(Cl)cc1)C(CN1CCOCC1)c1ccc(Cl)cc1 (centres undefined) ) reads 40.8

Field relative % inhibition (entry CC1CCCCN1CCCNC(=O)c1ccc2c(c1)sc1nc(-c3ccc(F)cc3)cn12 (centres undefined) ) reads 17.8

Field relative % inhibition (entry "O=C(Nc1ccc(Cl)c(Cl)c1)Nc1ccc(Cl)c(Cl)c1" ) reads 48.8

Field relative % inhibition (entry "COc1ccc(-c2nonc2NC(=O)c2cccc(C)c2)cc1OC" ) reads -9.12

Field relative % inhibition (entry COc1ccc(C2C(C(=O)Nc3cccc(OC)c3)c3ccccc3C(=O)N2C2CCCCC2)cc1 (centres undefined) ) reads 78.2

Field relative % inhibition (entry "Cc1c(C)n(Cc2ccc(F)cc2)c2ccc(C(=O)NCc3ccco3)cc12" ) reads 21.7

Field relative % inhibition (entry "Cc1ccc(CSCc2ccc(C(=O)NC3CC3)o2)cc1" ) reads 43.1

Field relative % inhibition (entry COc1ccc(NC(=O)C2c3ccccc3C(=O)N(CC(C)C)C2c2cccs2)cc1Cl (centres undefined) ) reads 66

Field relative % inhibition (entry "Oc1c2c(nc3cc(-c4ccccc4)nn13)CCCC2" ) reads 57.1

Field relative % inhibition (entry "CC(=O)c1sc(NC(=O)Nc2ccc(C)cc2C)nc1C" ) reads -29.6

Field relative % inhibition (entry "CN1CCN(c2ccc(Nc3c4ccccc4nc4ccccc34)cc2)CC1" ) reads 104

Field relative % inhibition (entry "CSc1ccccc1C(=O)Nc1nc(-c2ccccn2)cs1" ) reads 96.9

Field relative % inhibition (entry "FC(F)(F)c1cccc(Nc2nc3ccccc3nc2Nc2cccc(C(F)(F)F)c2)c1" ) reads 103

Field relative % inhibition (entry "COc1cccc(Nc2nc(NCCO)c3ccccc3n2)c1" ) reads 50.8

Field relative % inhibition (entry "Cc1cc(Nc2ccc(OCc3ccccc3)cc2)nc2cc(O)ccc12" ) reads 78.3

Field relative % inhibition (entry "Cc1ccc2cc3c(N)c4c(C)ccc(C)c4nc3nc2c1" ) reads 50.1

Field relative % inhibition (entry "Oc1ccccc1CNCC12CC3CC(CC(C3)C1)C2" ) reads 29.3

Field relative % inhibition (entry "Cc1cc(C)c2nc(N3CCC(C(=O)NCCCN4CCC(N5CCCCC5)CC4)CC3)sc2c1" ) reads 44.2

Field relative % inhibition (entry COc1ccc(Br)cc1C1Nc2ccc3ccccc3c2C2=C1C(=O)CC(c1ccccc1)C2 (centres undefined) ) reads 16.2

Field relative % inhibition (entry "CCc1ccc(Nc2cc(C)c3ccc(O)cc3n2)cc1" ) reads 56.6

Field relative % inhibition (entry CCOC(=O)C1=C(C)N=c2sc(=Cc3cc(Cl)ccc3O)c(=O)n2C1c1ccc(OC)cc1 (centres undefined) ) reads 103

Field relative % inhibition (entry "Cc1cc(N(C)C)nc(Nc2ccc(NC(=O)Nc3ccccc3)cc2)n1" ) reads 1.55

Field relative % inhibition (entry COc1cccc(C(=O)NC(c2ccc(C)cc2)c2cc(Cl)c3cccnc3c2O)c1 (centres undefined) ) reads 65.2

Field relative % inhibition (entry "CN(C)CCNc1cc(-c2ccccc2)nc2ccccc12" ) reads 6.35

Field relative % inhibition (entry Oc1c(C(Nc2ccccn2)c2cccc(Oc3ccccc3)c2)ccc2cccnc12 (centres undefined) ) reads 97.7

Field relative % inhibition (entry O=C(NC(c1ccccc1)c1ccc2cccnc2c1O)c1ccccc1 (centres undefined) ) reads 86.9

Field relative % inhibition (entry "CC1=C(CC(=O)c2cccc([N+](=O)[O-])c2)C(=O)c2ccccc2C1=O" ) reads 54.1

Field relative % inhibition (entry "Cc1ccc(-c2cc3c(nn2)-c2ccccc2C3=O)cc1" ) reads 70.6

Field relative % inhibition (entry CC1(c2ccccc2)Nc2ccccc2-c2nc3ccccc3n21 (centres undefined) ) reads 46.6

Field relative % inhibition (entry "CCN1CCN(Cc2ccc(NC(=O)c3cc4ccc5cccnc5c4[nH]3)cc2)CC1" ) reads 3.45

Field relative % inhibition (entry "CC(C)(C)c1ccc2c(c1)CN(Cc1ccc(Cl)cc1)CO2" ) reads 54.6

Field relative % inhibition (entry COc1ccccc1CNC(=O)C1c2ccccc2C(=O)N(CC(C)C)C1c1cccs1 (centres undefined) ) reads -4.52

Field relative % inhibition (entry "C=CCc1c(C)nc2ccccc2c1O" ) reads 53.7

Field relative % inhibition (entry CCCCCC(=O)N1c2ccccc2N=C2CC(c3ccc(OC)c(OC)c3)CC(O)=C2C1c1ccc(C(F)(F)F)cc1 (centres undefined) ) reads 60.6

Field relative % inhibition (entry "c1ccc2c(NCCc3c[nH]c4ccccc34)c3ccccc3nc2c1" ) reads 29.7

Field relative % inhibition (entry "O=C(Nc1ccc(F)c(Cl)c1)Nc1ccc(Cl)c(Cl)c1" ) reads 30.3

Field relative % inhibition (entry "Cc1cc(N2CCCC2)nc(Nc2ccc(NC(=O)CCc3ccccc3)cc2)n1" ) reads 21

====

# Test system: P. falciparum NF54-pfs16-GFP late (IV-V) stage gametocytes
# Protocol Notes: relative % inhibition of viable gametocyte number; higher = more gametocytocidal
# Measurement Parameters: 0.5 µM; stage: late (IV-V) gametocyte; incubation 72 h
Mark condition not met for relative % inhibition values under 20%, and condition met for everything at or above.

Check this molecule for relative % inhibition at or above 20%: "Cc1ccc2cc3c(N)c4c(C)ccc(C)c4nc3nc2c1"
condition not met

Check this molecule for relative % inhibition at or above 20%: "Cc1sc2ncnc(Sc3nc4ccccc4[nH]3)c2c1C"
condition met

Check this molecule for relative % inhibition at or above 20%: "c1ccc2c(NCCc3c[nH]c4ccccc34)c3ccccc3nc2c1"
condition not met

Check this molecule for relative % inhibition at or above 20%: "O=C(Nc1ccc(Cl)cc1C(=O)Nc1ccncc1)c1ccc(Cl)cc1Cl"
condition not met

Check this molecule for relative % inhibition at or above 20%: "COc1ccc(-c2nc3cc(Cc4ccc5[nH]c(-c6ccc(OC)cc6)nc5c4)ccc3[nH]2)cc1"
condition not met

Check this molecule for relative % inhibition at or above 20%: "CCn1c(SCC(=O)Nc2cc(C(F)(F)F)ccc2Cl)nc2ccccc2c1=O"
condition not met

Check this molecule for relative % inhibition at or above 20%: "Cc1cc(=O)oc2c1ccc1oc(C(=O)c3ccccc3)c(C)c12"
condition not met

Check this molecule for relative % inhibition at or above 20%: "CCOc1ccc2nc(C)cc(Nc3ccc(N(C)C)cc3)c2c1"
condition not met

Check this molecule for relative % inhibition at or above 20%: "O=C(Nc1ccc(-c2nc3ccccc3[nH]2)cc1)c1ccc(Cl)c(Cl)c1"
condition not met

Check this molecule for relative % inhibition at or above 20%: "COc1ccc(Nc2nc(NCc3ccccc3)c3ccccc3n2)cc1"
condition met

Check this molecule for relative % inhibition at or above 20%: "CCCCCCc1cc2cc(-c3nc4ccccc4[nH]3)c(=Nc3ccccc3C)oc2cc1O"
condition met

====

Would you mind telling me the reported relative % inhibition of each entry?
# System: P. falciparum NF54-pfs16-GFP late (IV-V) stage gametocytes
# Protocol Notes: relative % inhibition of viable gametocyte number; higher = more gametocytocidal
# Measurement Parameters: 5 µM; stage: late (IV-V) gametocyte; incubation 72 h
The figure you give is taken to be in %; do not add the unit.

Measured relative % inhibition for this entry COc1ccc(C2c3ccc4ccccc4c3Oc3ncn(CCCN(C)C)c(=N)c32)cc1 (stereo unspecified) on P. falciparum NF54-pfs16-GFP late (IV-V) stage gametocytes: 115

Measured relative % inhibition for this entry "O=C(NC1CCN(Cc2ccccc2)CC1)c1cc(-c2cccnc2)nc2ccc(Cl)cc12" on P. falciparum NF54-pfs16-GFP late (IV-V) stage gametocytes: -0.963

Measured relative % inhibition for this entry CN1C=C(c2ccc3ccccc3n2)C(c2c[nH]c3ccccc23)c2ccccc21 (stereo unspecified) on P. falciparum NF54-pfs16-GFP late (IV-V) stage gametocytes: 34.8

Measured relative % inhibition for this entry "CCCOCc1cc(CN2CCN(c3cccc(Cl)c3)CC2)c(O)c2ncccc12" on P. falciparum NF54-pfs16-GFP late (IV-V) stage gametocytes: 102

Measured relative % inhibition for this entry "Cc1cc(NC(=O)c2ccc(-c3ccccc3)cc2)no1" on P. falciparum NF54-pfs16-GFP late (IV-V) stage gametocytes: 36.8

Measured relative % inhibition for this entry "COc1ccc(CNC(=O)c2cc3c(=O)n4ccccc4nc3n(CCc3ccccc3)c2=N)cc1" on P. falciparum NF54-pfs16-GFP late (IV-V) stage gametocytes: -9.45

Measured relative % inhibition for this entry COc1ccc2c(c1)C1(Nc3ccccc3-c3nc4ccccc4n31)C(=O)N2 (stereo unspecified) on P. falciparum NF54-pfs16-GFP late (IV-V) stage gametocytes: 63.5

Measured relative % inhibition for this entry "O=C(Nc1ccccc1O)c1ccc(Oc2cccc(C(=O)Nc3ccccc3O)c2)cc1" on P. falciparum NF54-pfs16-GFP late (IV-V) stage gametocytes: 8.35

Measured relative % inhibition for this entry CCC(O)c1ccc(Br)cc1NC(=O)c1cccc(Cl)c1 (stereo unspecified) on P. falciparum NF54-pfs16-GFP late (IV-V) stage gametocytes: 28.6

Measured relative % inhibition for this entry "O=C1c2ccc3c4c(ccc(c24)C(=O)N1CCCCO)C(=O)N(CCCCO)C3=O" on P. falciparum NF54-pfs16-GFP late (IV-V) stage gametocytes: 4.35

Measured relative % inhibition for this entry OC1CCCCC1C1(NC(=S)Nc2ccccc2)CCCCC1 (stereo unspecified) on P. falciparum NF54-pfs16-GFP late (IV-V) stage gametocytes: 90.8

Measured relative % inhibition for this entry "COc1nc(Nc2ccc(C(C)C)cc2)nc(OC)n1" on P. falciparum NF54-pfs16-GFP late (IV-V) stage gametocytes: -10.9

Measured relative % inhibition for this entry "COc1ccc2sc(N(Cc3cccnc3)C(=O)c3ccc(C#N)cc3)nc2c1" on P. falciparum NF54-pfs16-GFP late (IV-V) stage gametocytes: 8.48

Measured relative % inhibition for this entry "COc1cc(-c2nc(-c3ccc(Sc4ccccc4)cc3)c(-c3ccccc3)[nH]2)cc(OC)c1O" on P. falciparum NF54-pfs16-GFP late (IV-V) stage gametocytes: -21

Measured relative % inhibition for this entry O=C(CCc1ccccc1)c1ccccc1OCC(O)CN1CCCCC1 (stereo unspecified) on P. falciparum NF54-pfs16-GFP late (IV-V) stage gametocytes: 48.2

Measured relative % inhibition for this entry "CN1CCN(c2c3c(c(C#N)c4nc5ccccc5n24)CCC3)CC1" on P. falciparum NF54-pfs16-GFP late (IV-V) stage gametocytes: -8.14

Measured relative % inhibition for this entry "Cc1cccc(-n2ncc3c(=O)[nH]c(-n4nc(C)cc4NC(=O)c4cc5ccccc5o4)nc32)c1" on P. falciparum NF54-pfs16-GFP late (IV-V) stage gametocytes: 102

Measured relative % inhibition for this entry Cc1sc(NC(=O)c2ccco2)c(C(c2cccnc2)N2CCC(Cc3ccccc3)CC2)c1C (stereo unspecified) on P. falciparum NF54-pfs16-GFP late (IV-V) stage gametocytes: 106

Measured relative % inhibition for this entry "Oc1c(CN2CCN(c3ccccc3F)CC2)cc(Br)c2cccnc12" on P. falciparum NF54-pfs16-GFP late (IV-V) stage gametocytes: 79.5

Measured relative % inhibition for this entry CCOc1cc2c(cc1OCC)C(c1cc(C)c(O)c(C)c1)NCC2 (stereo unspecified) on P. falciparum NF54-pfs16-GFP late (IV-V) stage gametocytes: 34.7

Measured relative % inhibition for this entry "O=c1cc(NC2CCN(CCCc3ccccc3)CC2)c2cc(Cl)ccc2o1" on P. falciparum NF54-pfs16-GFP late (IV-V) stage gametocytes: -6.17
